The reported measurements were obtained from patent US6156789A.

Experiment: Tissue distribution of Compound A in mice with mammary C/16 adenocarcinomas (first method: liver, heart, kidney, lung, spleen, tumor)
Type: in vivo, C3H/HeN female mice
Conditions: mouse, tumor/plasma, iv, dose 40; 0.25 h; single mice; read-out: Tumor/Plasma Ratio

{"Smiles data": "CC(=O)O[C@H]1C(=O)[C@]23C[C@H]2C[C@H]2OC[C@@]2(OC(C)=O)[C@H]3[C@H](OC(=O)c2ccccc2)[C@]2(O)C[C@H](OC(=O)[C@H](O)[C@@H](NC(=O)OC(C)(C)C)c3ccccc3)C(C)=C1C2(C)C", "Kp at 0.25 h": 0.58}

----------
Experiment: Tissue distribution of Compound A in mice with mammary C/16 adenocarcinomas (first method: liver, heart, kidney, lung, spleen, tumor)
Type: in vivo, C3H/HeN female mice
Settings: mouse, tumor/plasma, iv, dose 9.5; 4 h; single mice; read-out: Tumor/Plasma Ratio
Readout label: Kp at 4 h

{"Smiles data": "CC(=O)O[C@H]1C(=O)[C@]23C[C@H]2C[C@H]2OC[C@@]2(OC(C)=O)[C@H]3[C@H](OC(=O)c2ccccc2)[C@]2(O)C[C@H](OC(=O)[C@H](O)[C@@H](NC(=O)OC(C)(C)C)c3ccccc3)C(C)=C1C2(C)C", "Endpoint value": 3.45}

----------
Test: Tissue distribution of Compound A in mice with mammary C/16 adenocarcinomas (first method: liver, heart, kidney, lung, spleen, tumor)
Type: in vivo, C3H/HeN female mice
Conditions: mouse, tumor/plasma, iv, dose 40; 4 h; single mice; read-out: Tumor/Plasma Ratio
Protocol: Mammary C/16 adenocarcinomas were implanted in C3H/HeN female mice. […] The body weight and date of implantation were recorded for each mouse. […] The plasma and tissue samples were then analyzed for the concentration of Compound A. The plasma was assayed by high pressure liquid chromatography with spectrophotometric detection. For the tissue, liver, heart, kidney, lung, spleen and tumor tissue, samples were assayed by a first method, while a second method was used for the brain tissue analyzed. […]

{"Molecule": "CC(=O)O[C@H]1C(=O)[C@]23C[C@H]2C[C@H]2OC[C@@]2(OC(C)=O)[C@H]3[C@H](OC(=O)c2ccccc2)[C@]2(O)C[C@H](OC(=O)[C@H](O)[C@@H](NC(=O)OC(C)(C)C)c3ccccc3)C(C)=C1C2(C)C [Compound A]", "Kp at 4 h": 1.8}

----------
Assay: Tissue distribution of Compound A in mice with mammary C/16 adenocarcinomas (first method: liver, heart, kidney, lung, spleen, tumor)
Type: in vivo, C3H/HeN female mice
Settings: mouse, spleen, iv; 40 mg/kg i.v.; read-out: time of maximum concentration, spleen

{"Compound": "CC(=O)O[C@H]1C(=O)[C@]23C[C@H]2C[C@H]2OC[C@@]2(OC(C)=O)[C@H]3[C@H](OC(=O)c2ccccc2)[C@]2(O)C[C@H](OC(=O)[C@H](O)[C@@H](NC(=O)OC(C)(C)C)c3ccccc3)C(C)=C1C2(C)C [Compound A]", "Tmax, min": 4.98}

----------
Test: Tissue distribution of Compound A in mice with mammary C/16 adenocarcinomas (first method: liver, heart, kidney, lung, spleen, tumor)
Format: in vivo, C3H/HeN female mice
Conditions: mouse, tumor/plasma, iv, dose 40; 0.50 h; single mice; read-out: Tumor/Plasma Ratio

{"Compound": "CC(=O)O[C@H]1C(=O)[C@]23C[C@H]2C[C@H]2OC[C@@]2(OC(C)=O)[C@H]3[C@H](OC(=O)c2ccccc2)[C@]2(O)C[C@H](OC(=O)[C@H](O)[C@@H](NC(=O)OC(C)(C)C)c3ccccc3)C(C)=C1C2(C)C [Compound A]", "Kp at 0.5 h": 0.78}

----------
Assay: Brain distribution of Compound A in mice with mammary C/16 adenocarcinomas (second method, brain tissue)
Format: in vivo, C3H/HeN female mice
Details: mouse, brain, iv, 40 mg/kg, 0.50 h; 40 μg/kg [sic]; single mice; read-out: Brain CONC.

{"Compound": "CC(=O)O[C@H]1C(=O)[C@]23C[C@H]2C[C@H]2OC[C@@]2(OC(C)=O)[C@H]3[C@H](OC(=O)c2ccccc2)[C@]2(O)C[C@H](OC(=O)[C@H](O)[C@@H](NC(=O)OC(C)(C)C)c3ccccc3)C(C)=C1C2(C)C [Compound A]", "Quantity unit": "ng/g", "concentration at 0.5 h": 11200}

----------
Assay: Tissue distribution of Compound A in mice with mammary C/16 adenocarcinomas (first method: liver, heart, kidney, lung, spleen, tumor)
Assay type: in vivo, C3H/HeN female mice
Details: mouse, tumor/plasma, iv, dose 40; 0.083 h; single mice; read-out: Tumor/Plasma Ratio

{"Compound": "CC(=O)O[C@H]1C(=O)[C@]23C[C@H]2C[C@H]2OC[C@@]2(OC(C)=O)[C@H]3[C@H](OC(=O)c2ccccc2)[C@]2(O)C[C@H](OC(=O)[C@H](O)[C@@H](NC(=O)OC(C)(C)C)c3ccccc3)C(C)=C1C2(C)C [Compound A]", "Kp at 0.083 h": 0.37}

----------
Experiment: Tissue distribution of Compound A in mice with mammary C/16 adenocarcinomas (first method: liver, heart, kidney, lung, spleen, tumor)
Assay type: in vivo, C3H/HeN female mice
Conditions: mouse, tumor/plasma, iv, dose 9.5; 0.033 h; single mice; read-out: Tumor/Plasma Ratio
Readout label: Kp at 0.033 h

{"Smiles data": "CC(=O)O[C@H]1C(=O)[C@]23C[C@H]2C[C@H]2OC[C@@]2(OC(C)=O)[C@H]3[C@H](OC(=O)c2ccccc2)[C@]2(O)C[C@H](OC(=O)[C@H](O)[C@@H](NC(=O)OC(C)(C)C)c3ccccc3)C(C)=C1C2(C)C", "Endpoint value": 0.24}

----------
Assay: Tissue distribution of Compound A in mice with mammary C/16 adenocarcinomas (first method: liver, heart, kidney, lung, spleen, tumor)
Format: in vivo, C3H/HeN female mice
Details: mouse, heart, iv; 40 mg/kg i.v.; read-out: time of maximum concentration, heart
Readout label: Tmax (min)

{"Smiles data": "CC(=O)O[C@H]1C(=O)[C@]23C[C@H]2C[C@H]2OC[C@@]2(OC(C)=O)[C@H]3[C@H](OC(=O)c2ccccc2)[C@]2(O)C[C@H](OC(=O)[C@H](O)[C@@H](NC(=O)OC(C)(C)C)c3ccccc3)C(C)=C1C2(C)C", "Quantity unit": "min", "Endpoint value": 1.98}

----------
Assay: Tissue distribution of Compound A in mice with mammary C/16 adenocarcinomas (first method: liver, heart, kidney, lung, spleen, tumor)
Assay type: in vivo, C3H/HeN female mice
Conditions: mouse, tumor/plasma, iv, dose 9.5; 1 h; single mice; read-out: Tumor/Plasma Ratio

{"Molecule": "CC(=O)O[C@H]1C(=O)[C@]23C[C@H]2C[C@H]2OC[C@@]2(OC(C)=O)[C@H]3[C@H](OC(=O)c2ccccc2)[C@]2(O)C[C@H](OC(=O)[C@H](O)[C@@H](NC(=O)OC(C)(C)C)c3ccccc3)C(C)=C1C2(C)C [Compound A]", "Kp at 1 h": 2.02}

----------
Test: Tissue distribution of Compound A in mice with mammary C/16 adenocarcinomas (first method: liver, heart, kidney, lung, spleen, tumor)
Assay type: in vivo, C3H/HeN female mice
Settings: mouse, spleen/plasma, iv, 40 mg/kg, 4 h; mice with tumors; single mice; read-out: Tissue/Plasma Ratio, SPLEEN
Readout label: Kp at 4 h

{"Smiles data": "CC(=O)O[C@H]1C(=O)[C@]23C[C@H]2C[C@H]2OC[C@@]2(OC(C)=O)[C@H]3[C@H](OC(=O)c2ccccc2)[C@]2(O)C[C@H](OC(=O)[C@H](O)[C@@H](NC(=O)OC(C)(C)C)c3ccccc3)C(C)=C1C2(C)C", "Endpoint value": 1.72}

----------
Experiment: Tissue distribution of Compound A in mice with mammary C/16 adenocarcinomas (first method: liver, heart, kidney, lung, spleen, tumor)
Format: in vivo, C3H/HeN female mice
Details: mouse, liver/plasma, iv, 40 mg/kg, 0.25 h; mice with tumors; single mice; read-out: Tissue/Plasma Ratio, LIVER

{"Compound": "CC(=O)O[C@H]1C(=O)[C@]23C[C@H]2C[C@H]2OC[C@@]2(OC(C)=O)[C@H]3[C@H](OC(=O)c2ccccc2)[C@]2(O)C[C@H](OC(=O)[C@H](O)[C@@H](NC(=O)OC(C)(C)C)c3ccccc3)C(C)=C1C2(C)C [Compound A]", "Kp at 0.25 h": 1.79}

----------
Assay: Tissue distribution of Compound A in mice with mammary C/16 adenocarcinomas (first method: liver, heart, kidney, lung, spleen, tumor)
Type: in vivo, C3H/HeN female mice
Details: mouse, tissues, iv, 40 mg/kg, 40 mg/kg i.v.; tissues other than brain; read-out: half-life in the other tissues

{"Compound": "CC(=O)O[C@H]1C(=O)[C@]23C[C@H]2C[C@H]2OC[C@@]2(OC(C)=O)[C@H]3[C@H](OC(=O)c2ccccc2)[C@]2(O)C[C@H](OC(=O)[C@H](O)[C@@H](NC(=O)OC(C)(C)C)c3ccccc3)C(C)=C1C2(C)C [Compound A]", "half-life": "1.6 to 9.3 h"}
